- targetUnderTest: PU.1 (human, UniProt P17947 1-270)
- experimentNotes: MST; MST: 20 mM Tris-HCl pH 7.6, 1.5 mM MgCl2, 0.5 mM EGTA, 10% glycerol, 300 mM KCl, 10 mM DTT, 25 C; 50 nM Cy3-dsDNA, PU.1 1:1 dilutions from 23 uM
- recordedConditions: protein: recombinant; tags: N-terminal His-tag; label: Cy3 on upper strand
Note: every record was labeled by where its Kd sits among bottom range = under 600 nM, center range = from 600 nM up to 900 nM, top range = 900 nM and over

PU.1 motif oligo 65 (dsDNA) DNA 1: ACGTTTCTTCCTCTTCACGT DNA 2: ACGTGAAGAGGAAGAAACGT	center range
PU.1 motif oligo 17 (dsDNA) DNA 1: ACGTCACTTCCTCCCTACGT DNA 2: ACGTAGGGAGGAAGTGACGT	bottom range
PU.1 motif oligo 22 (dsDNA) DNA 1: ACGTGACTTCCTCATCACGT DNA 2: ACGTGATGAGGAAGTCACGT	bottom range

Request: Consider PU.1 motif oligo 66 (dsDNA) DNA 1: ACGTCAGTTCTCTTTTACGT DNA 2: ACGTAAAAGAGAACTGACGT . To which Kd class does it belong?
Response: top range

Request: Consider PU.1 motif oligo 70 (dsDNA) DNA 1: ACGTATCTTCCTCACTACGT DNA 2: ACGTAGTGAGGAAGATACGT . To which Kd class does it belong?
Response: top range

Request: Consider PU.1 motif oligo 51 (dsDNA) DNA 1: ACGTCACTTCCTTGTCACGT DNA 2: ACGTGACAAGGAAGTGACGT . To which Kd class does it belong?
Response: center range

Request: Consider PU.1 motif oligo 20 (dsDNA) DNA 1: ACGTAACTTCCCCATTACGT DNA 2: ACGTAATGGGGAAGTTACGT . To which Kd class does it belong?
Response: bottom range

Request: Consider PU.1 motif oligo 73 (dsDNA) DNA 1: ACGTAACTTCTTCAAAACGT DNA 2: ACGTTTTGAAGAAGTTACGT . To which Kd class does it belong?
Response: top range

Request: Consider PU.1 motif oligo 30 (dsDNA) DNA 1: ACGTCAGTTCCTGTTTACGT DNA 2: ACGTAAACAGGAACTGACGT . To which Kd class does it belong?
Response: bottom range

Request: Consider PU.1 motif oligo 41 (dsDNA) DNA 1: ACGTCACTTCCTAAATACGT DNA 2: ACGTATTTAGGAAGTGACGT . To which Kd class does it belong?
Response: center range
